# System: Candida albicans
# assay.overview: Antifungal activity against Candida albicans ATCC 10231 after 48 hr by two-fold serial dilution method
# Assay type: functional
# condition.details: ATCC 10231, 48 h
experimental.readout: MIC (µg/mL)

Solved cases below.
>>> print(df.to_string())
                                   molecule       target_desc  assay_value
0  O=C1OC(c2ccc(Cl)cc2)C(Br)=C1O (configuration not stated)  Candida albicans         31.2
1  O=C(O)C(=O)/C=C/c1cn(-c2ccccc2)nc1-c1ccccc1  Candida albicans         31.2
2  COc1ccc(-c2nn(-c3ccccc3)cc2/C=C/C(=O)C(=O)O)cc1  Candida albicans         31.2
3    Clc1ccccc1C(c1ccccc1)(c1ccccc1)n1ccnc1  Candida albicans         7.81

A. O=C(O)C(=O)/C=C/c1cn(-c2ccccc2)nc1-c1ccc(Br)cc1
B. O=C1OC(c2ccccc2)C(Br)=C1O (configuration not stated)
C. O=C1OC(c2ccccc2)C(I)=C1O (configuration not stated)
Place the items in sequence of falling MIC. Please, when replying, give the labels in the order that was requested.
C, B, A

----------
Reported zone of inhibition at 1000 µg/mL values for a set of molecules
# Test system: Escherichia coli
# assay.overview: Antibacterial activity against Escherichia coli NCTC 10418 at 1 mg/ml after 24 hr by agar cup diffusion method
# Assay type: functional
# condition.details: NCTC 10418, 24 h, read-out: DIZ
Give the value in mm but do not write mm after it.

Below: 8 molecules and their reported zone of inhibition at 1000 µg/mL.
>>> print(df.to_string())
                                   molecule  assay_value
0  COc1ccc(-c2nn(-c3ccccc3)cc2/C=C/C(=O)C(=O)O)cc1           17
1  O=C(O)C(=O)/C=C/c1cn(-c2ccccc2)nc1-c1ccc(Br)cc1           19
2  O=C1OC(c2ccc(Cl)cc2)C(Br)=C1O (stereo not given)           20
3   O=c1[nH]c2ccccc2nc1/C(I)=C/c1ccc(Cl)cc1           15
4               O=C(O)/C(Br)=C/c1ccc(Cl)cc1           18
5  Cc1nn(-c2ccccc2)c(C)c1C1OC(=O)C(O)=C1Br (stereo not given)           17
6  O=C(COC1=C(Br)C(c2ccccc2)OC1=O)NCc1ccccc1 (stereo not given)           24
7  O=C(O)/C(Br)=C/c1cn(-c2ccccc2)nc1-c1ccc(Br)cc1           17

Given the molecule "O=C(O)C(=O)/C=C/c1cn(-c2ccccc2)nc1-c1ccccc1" , what is its reported zone of inhibition at 1000 µg/mL?
19

"CC1(C)S[C@@H]2[C@H](NC(=O)[C@H](N)c3ccccc3)C(=O)N2[C@H]1C(=O)O" , same question.
26

Now give it for "Cc1nn(-c2ccccc2)c(C)c1/C=C(\Br)C(=O)O" too.
19

Would you kindly repeat that for O=C1OC(c2cn(-c3ccccc3)nc2-c2ccccc2)C(Br)=C1O (stereo not given) ?
19

Further, for "Cc1nn(-c2ccccc2)c(C)c1/C=C(\I)c1nc2ccccc2[nH]c1=O" ?
20

Entry O=C1OC(c2cn(-c3ccccc3)nc2-c2ccc(Br)cc2)C(Br)=C1O (stereo not given) please
17

Input O=C1OC(c2ccccc2)C(Br)=C1O (stereo not given)
21
